Test system: NCI-H23 lung
Assay Summary: NCI tumour cell line growth inhibition, 48 h
Decide by TGI: equal to or exceeding 5 µM means True, less means False.

Assess whether reported TGI for COC(=O)C1C(O)C(C)C(O)C(C)(O)/C=C/C=C(C)C(=O)Nc2c(C)c(OC(C)=O)c3c(c2O)C(=O)C(C)=C2OCOC(=C23)C(C)=CC(C)(O)C(O)C(C)C1OC(C)=O (centres undefined) sits at 5 µM or higher.
True

Assess whether reported TGI for CC(C)S(=O)(=O)ON1C(=O)c2ccc(N(C)C)cc2C1=O sits at 5 µM or higher.
True

Assess whether reported TGI for O=C(/C=C/c1ccccc1O)c1cccs1 sits at 5 µM or higher.
True

Assess whether reported TGI for CC(C)CC(=O)[O-].N.N.N.N.N.[Co+3].[O-][Cl+3]([O-])([O-])[O-] sits at 5 µM or higher.
True

Assess whether reported TGI for C=C[C@]1(C)C[C@@H](OC(=O)CO)[C@@]2(C)[C@H](C)CC[C@]3(CCC(=O)[C@H]32)[C@@H](C)[C@@H]1O sits at 5 µM or higher.
True

Assess whether reported TGI for COc1ccc2c(c1)C(=O)c1c-2c(=O)n(CCCCCCC(=O)NO)c2ccccc12 sits at 5 µM or higher.
False

Others:
Assess whether reported TGI for Nc1nc(CCl)nc(N2CCOCC2)n1 sits at 5 µM or higher.
True

Assess whether reported TGI for CCCCCCCCCOc1c(OC)cc(C2CC(=O)Nc3c2c(C)nn3-c2nc3ccccc3[nH]2)cc1OC (centres undefined) sits at 5 µM or higher.
False

Assess whether reported TGI for CNCCC/C=C1\c2cc3c(cc2-c2c1c1cc(OC)c(OC)cc1c(=O)n2C)OCO3 sits at 5 µM or higher.
True

====

Test system: DU-145 prostate
Assay Summary: NCI tumour cell line growth inhibition, 48 h
Value Type: GI50

Here are 2 compounds together with their reported answers.
Entry O=C1C=C2C(=CCOC2O)O1 (stereo not drawn) : reported GI50 = ?
2070 nM

Entry O=c1[nH]c2c3ccncc3cc(-c3cccc(Cl)c3)c2c2cnccc12 : reported GI50 = ?
> 100000 nM

In the following, a different compound is considered.
Entry CCN1CCN(Cc2ccc(NC(=O)c3nc4ccc5[nH]ncc5c4c4c3CCCC4)cc2C(F)(F)F)CC1 : reported GI50 = ?
1250 nM

====

System: HCT-116 colon
Assay Summary: NCI tumour cell line growth inhibition, 48 h
Value Type: TGI (µM)
Please state the figure in µM; there is no need to write the unit.

Here are 4 compounds together with their reported answers.
Entry C=C(C)[C@@H]1CC[C@]2(C)[C@H](CC[C@@H]3[C@@H]([C@@](C)(O)CCC=C(C)C)CC[C@]32C)[C@@]1(C)CCC(=O)N1CCN(C)CC1 : reported TGI = ?
16.9

Entry N#CC(C#N)N=Nc1ccc(-c2nc3ccccc3s2)cc1 : reported TGI = ?
13.6

Entry COc1ccc2[nH]c(Cl)c(/C=C3/C(=O)N(c4ccccc4)c4ccccc43)c2c1 : reported TGI = ?
18.6

Entry Cc1c2cccc(Sc3ccccc3)c2c2c3c(cccc13)[S+](c1ccccc1)C2 (centres undefined) : reported TGI = ?
9.59

In the following, a different compound is considered.
Entry NC(=O)c1ccc(NCC2=CC(=O)C=CC2=O)cc1 : reported TGI = ?
36.1
